Data origin, for the record: patent US20250250357A1

The following binders are listed with their measured OD450 values.
Target: T1, human MSLN-R3 protein (human, UniProt Q13421 487-598)
T1 construct: also called hMSLN-R3
T1 sequence (Q13421 495-606, form in doubt): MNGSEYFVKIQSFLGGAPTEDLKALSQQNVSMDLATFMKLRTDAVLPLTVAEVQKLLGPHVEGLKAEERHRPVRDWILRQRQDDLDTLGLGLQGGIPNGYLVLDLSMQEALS
Assay: ELISA on coated antigen, antibody 0.001 nM
Give a bare numeral; the unit OD450 is implied.

Study these solved cases before continuing.
Reported OD450 of F7.33.24-H7 (scFv, not shown: small tags and cut ends, also called S009-F7.33.24 humanized antibody VH2 + VL1) scFv: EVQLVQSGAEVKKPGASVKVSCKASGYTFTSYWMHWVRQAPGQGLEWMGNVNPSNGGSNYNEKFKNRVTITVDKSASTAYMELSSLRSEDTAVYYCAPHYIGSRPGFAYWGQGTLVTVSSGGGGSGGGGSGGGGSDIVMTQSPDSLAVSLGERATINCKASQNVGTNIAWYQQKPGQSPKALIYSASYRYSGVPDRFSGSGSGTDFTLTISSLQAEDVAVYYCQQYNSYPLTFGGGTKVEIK : 0.04

Reported OD450 of F7.33.24-H9 (scFv, not shown: small tags and cut ends, also called S009-F7.33.24 humanized antibody VH2 + VL3) scFv: EVQLVQSGAEVKKPGASVKVSCKASGYTFTSYWMHWVRQAPGQGLEWMGNVNPSNGGSNYNEKFKNRVTITVDKSASTAYMELSSLRSEDTAVYYCAPHYIGSRPGFAYWGQGTLVTVSSGGGGSGGGGSGGGGSDIVMTQTPLSLSVTPGQPASISCKASQNVGTNIAWYQQKPGQSPQALIYSASYRYSGVPDRFSGSGSGTDFTLKISRVEAEDVGVYYCQQYNSYPLTFGGGTKVEIK : 0.04

The record that follows has no OD450 shown yet.
Reported OD450 of F7.33.24-H5 (scFv, not shown: small tags and cut ends, also called S009-F7.33.24 humanized antibody VH1a + VL2) scFv: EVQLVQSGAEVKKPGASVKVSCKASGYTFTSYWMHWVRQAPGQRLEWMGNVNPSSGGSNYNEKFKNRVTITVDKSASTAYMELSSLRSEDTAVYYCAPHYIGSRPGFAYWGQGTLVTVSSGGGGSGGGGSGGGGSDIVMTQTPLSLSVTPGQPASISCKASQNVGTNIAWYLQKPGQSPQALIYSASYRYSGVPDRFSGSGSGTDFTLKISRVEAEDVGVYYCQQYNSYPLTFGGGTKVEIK : 0.04
